protocolText: Antiproliferative against rat HSC-T6 cells measured after 48 hrs by CCK8 assay
Format: toxicity, cell-based
measureName: IC50 at 48 h

Use the examples below as a reference point.
structure | measureName | result
Cn1nc(C(F)(F)F)c2cc(C(=O)Nc3cccc(-c4nncn4C4CCCCC4)c3)c(=O)[nH]c21 | IC50 at 48 h | > 80 µM
Cn1nc(C(F)(F)F)c2cc(C(=O)Nc3cccc(-c4nncn4C4CCCC4)n3)c(=O)[nH]c21 | IC50 at 48 h | > 80 µM
O=C(Nc1cccc(-c2nncn2C2CC2)n1)c1cc(Br)cn(Cc2ccccc2F)c1=O | IC50 at 48 h | > 80 µM
CC(C)n1cnnc1-c1cccc(NC(=O)c2cc3c(C(F)(F)F)nn(C)c3n(C)c2=O)c1 | IC50 at 48 h | > 80 µM
O=C(Nc1cccc(-c2nncn2C2CC2)n1)c1cc(-c2cnn(C3CCC3)c2)cn(Cc2ccccc2F)c1=O | IC50 at 48 h | > 80 µM
Cn1nc(C(F)(F)F)c2cc(C(=O)Nc3cccc(-c4nncn4C4CCCC4)n3)c(OCc3ccccc3F)nc21 | IC50 at 48 h | 14.8 µM

Query :: Fill in reported IC50 at 48 h for this entry: `O=C(Nc1cccc(-c2nncn2C2CC2)n1)c1cc(-c2ccc3[nH]ccc3c2)cn(Cc2ccccc2F)c1=O`
Result :: > 80 µM

Query :: Find the measured IC50 at 48 h of `CC(C)n1cc(-c2cc(C(=O)Nc3cccc(-c4nncn4C4CC4)n3)c(=O)n(Cc3ccccc3F)c2)cn1` and report it.
Result :: 25 µM
